# TEST_SUMMARY: Single-turnover
# Design: species or system [13, 20]
# EXPERIMENTAL_SETUP: read-out: Kd (incoming nucleotide, Pol•DNA complex); Pol η; opposite template dC; 37 °C
Below, each entry is listed with its recorded Kd.
EXPERIMENTAL_READOUT: Kd

MOLECULE: Nc1nc2c(ncn2[C@H]2C[C@H](O)[C@@H](COP(=O)(O)OP(=O)(O)OP(=O)(O)O)O2)c(=O)[nH]1
EXPERIMENTAL_READOUT: Kd
REPORTED: 80 µM
--
MOLECULE: C=C1[C@H](COP(=O)(O)OP(=O)(O)OP(=O)(O)O)[C@@H](O)C[C@@H]1n1cnc2c(=O)[nH]c(N)nc21 [ETV-TP, entecavir 5′-triphosphate]
EXPERIMENTAL_READOUT: Kd
REPORTED: 2.4 µM
